Listed here: items and their measured inhibition.
TARGET OR TEST SYSTEM: L-lactate dehydrogenase (Plasmodium falciparum (isolate CDC / Honduras)) (UniProt Q27743)
Sequence (Q27743 whole entry, looked up): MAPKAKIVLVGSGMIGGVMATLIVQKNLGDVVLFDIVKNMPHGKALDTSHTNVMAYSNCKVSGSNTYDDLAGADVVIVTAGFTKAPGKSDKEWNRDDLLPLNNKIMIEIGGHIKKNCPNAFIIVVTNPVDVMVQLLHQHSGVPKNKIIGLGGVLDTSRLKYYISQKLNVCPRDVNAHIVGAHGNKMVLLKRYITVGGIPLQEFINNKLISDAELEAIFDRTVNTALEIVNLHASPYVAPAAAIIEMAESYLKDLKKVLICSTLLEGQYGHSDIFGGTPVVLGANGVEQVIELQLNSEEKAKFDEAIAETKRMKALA
TEST PROTOCOL: PfLDH activity inhibition – cell lysate, 3D7 strain, counter-screen for P. falciparum growth inhibition project (AID 2304);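 note: 0% = vehicle and 100% = reference inhibitor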
SETUP CONDITIONS: P. falciparum 3D7 crude extract, LDH APAD/NBT absorbance; at 2 µM; hits give high values

COMPOUND	inhibition (%)
COc1cc2nc(N3CCC(CNC(=O)c4ccc(-c5ccc(Cl)cc5)cc4)CC3)nc(N)c2cc1OC	8
CCOCCCNc1sc(S(=O)(=O)c2ccccc2)nc1S(=O)(=O)c1ccc(C)cc1	1
CCc1c(CCNCCCCCCNCCc2ccc([N+](=O)[O-])cc2)ccc(O)c1O	-1
O=C(NCCc1cccc(Cl)c1Cl)c1cnc(N2CCN(c3ccncc3)CC2)c(Cl)c1	0
CN1CCCC1CCNC(=O)[C@H](CC1CCCCC1)NC(=O)c1ccc(O)c(-c2ccc(Cl)c(Cl)c2)c1 (some centres undefined)	3
CCN(CC)CCCC(C)Nc1c2cc(OC)ccc2nc2cc(Cl)c([N+](=O)[O-])cc12 (centres undefined)	2
CCOC(=O)C1CCN(CCCNC(=O)/C(=C/C=C/c2cc3cc(Cl)c(Cl)cc3[nH]2)OC)CC1	-6
CC1CCCN(Cc2c(O)ccc3c(=O)c(-c4nc5ccccc5s4)c(N)oc23)C1 (centres undefined)	-2
O=C(Nc1cccc(N2CCC(NCc3cccnc3)CC2)c1)c1cccc(C(F)(F)F)c1	-3
CC(=O)Nc1ccc2[nH]cc(C3CCN(CC4CCN(C(=O)/C=C/c5ccc(Cl)c(Cl)c5)CC4)CC3)c2n1	-2
N#Cc1ccc(-c2ccc(C(=O)NC3CCN(CCN4CCc5c(cccc5C(F)(F)F)C4)CC3)cc2)cc1	-1
FC(F)(F)c1ccc2nccc(NCc3ccccc3)c2c1	-9
CCOc1ccc(C(=O)Nc2cc3c(c(C(F)(F)F)c2)CCNC3)cc1Cl	-4
Cc1cccc(Nc2nc(N)c3ccccc3n2)c1	3
COc1cc2nccc(Nc3ccc(NC(=O)c4ccc(C)cc4)c(O)c3)c2cc1OC	1
O=C(NCc1ccc(F)cc1)Nc1ccc(-c2cccc(-c3nc4ccc(F)cc4[nH]3)c2)cc1	-1
Cc1c(Cl)cccc1S(=O)(=O)Nc1cccc(CCN2CCC(N3CCCCC3)CC2)c1	-1
CCN(CCCN1CCCCC1)c1cc(C)nc(Nc2ccc(C)cc2)n1	-1
CCCCNCc1ccc(-c2nc(CN(CCCn3ccnc3)C(=O)C3COc4ccccc4O3)cs2)cc1 (centres undefined)	-4
